Test system: diaphorase
ASSAY INFO: fluorescently labeled diaphorase binding to peptide array with or without excess FAD
ASSAY CONDITIONS: 10 micromolar labeled diaphorase, excess FAD present; 65535 is detector saturation
I'd appreciate it if you marked entries t when 10 microM FAD (array fluorescence of bound diaphorase) is lower than 40000 and f when it is not.

RESIDUE CODES	GROUP LABEL
AFYGLELGGSG [array peptide with C-terminal GSG linker]	t
RFKYPLDGGSG [array peptide with C-terminal GSG linker]	t
YRNAAWFSGGSG [array peptide with C-terminal GSG linker]	f
RQAYLFGGSG [array peptide with C-terminal GSG linker]	f
RWRYYWKSEGSG [array peptide with C-terminal GSG linker]	f
